Cited source for all entries: patent US20250000979A1

assay: Photolysis of BODIPY prodrugs in solution, analysed by HPLC; type: physicochemical; conditions: 690 nm, 100 mW/cm^2, 5 min, 0.1 equiv. Os(bptpy)2^2+, N2-saturated solution
Tick True if photolytic yield (yield of free drug) is 70% or greater. Tick False if photolytic yield (yield of free drug) is less than 70%.

COMPOUND	CAT
CC1=C(I)C(C)=[N+]2C1=C(COC(=O)C(C)c1ccc(CC(C)C)cc1)c1c(C)c(I)c(C)n1[B-]2(C)C (centres unmarked) [BODIPY-IBF, BODIPY-ibuprofen]	False
CCCCN(C(=O)OCC1=C2C(C)=C(I)C(C)=[N+]2[B-](C)(C)n2c(C)c(I)c(C)c21)c1ccc(C(=O)OCCN(C)C)cc1 [BODIPY-TCI, BODIPY-tetracaine]	False
CC1=C(I)C(C)=[N+]2C1=C(COC(=O)NCCc1ccc(O)cc1)c1c(C)c(I)c(C)n1[B-]2(C)C [BODIPY-TyrA, BODIPY-tyramine]	False
CC1=C(I)C(C)=[N+]2C1=C(COC(=O)Cc1cccc3c(=O)c4ccc(C)c(C)c4oc13)c1c(C)c(I)c(C)n1[B-]2(C)C [BODIPY-DMXAA, BODIPY-vadimezan]	True
CC1=C(I)C(C)=[N+]2C1=C(COC(=O)/C=C/c1cccc(OCc3ccccc3)c1)c1c(C)c(I)c(C)n1[B-]2(C)C [BODIPY-BCA, BODIPY-benzyloxycinnamic acid]	True
COc1ccc(CCNC(=O)OCC2=C3C(C)=C(I)C(C)=[N+]3[B-](C)(C)n3c(C)c(I)c(C)c32)cc1OC [BODIPY-HVA, BODIPY-homoveratrylamine]	True
